test: In vitro metabolic stability, human liver microsomes; type: in vitro ADME; details: scaled from human liver microsomes; read-out: Predicted CLint, in vivo
quantity measured: CLint scaled at 1 μM (mL/min/kg)
Numbers only, in mL/min/kg.

In: Answer with reported CLint scaled at 1 μM of CCn1cnc(-c2ccc(F)cc2)c1-c1ccnc(NCCO)n1 [ZH3-126]
Out: 6

====

test: Mouse pharmacokinetics, IV and oral administration; type: in vivo; details: male, C57BL/6, mouse, plasma, po, 8.96 mg/kg, male C57BL/6 mice, oral 8.96 mg/kg, 7.5 h; read-out: Plasma Concentration, Individual
quantity measured: concentration at 7.5 h (µM)
One number for each entry, in µM.

In: Answer with reported concentration at 7.5 h of Nc1nccc(-c2c(-c3ccc(F)cc3)ncn2C2CCC(F)(F)CC2)n1 [ZH3-138]
Out: 6.59

The reported measurements were obtained from patent US20220281846A1.
